target: EGFR (Homo sapiens, UniProt P00533); experiment: 125I-EGF whole-cell saturation binding, ZR-75-9a1 8 uM cells, Woolf analysis
pKd: −log10 of the molar value.

[
  {
    "binder": "EGF (protein) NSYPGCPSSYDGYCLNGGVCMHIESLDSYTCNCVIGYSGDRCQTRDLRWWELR",
    "pKd": 9.72
  }
]
